tested.on: von Hippel-Lindau disease tumor suppressor/Mitogen-activated protein kinase 14 (Homo sapiens, UniProt P40337+Q16539)
Sequence (Q16539 whole entry): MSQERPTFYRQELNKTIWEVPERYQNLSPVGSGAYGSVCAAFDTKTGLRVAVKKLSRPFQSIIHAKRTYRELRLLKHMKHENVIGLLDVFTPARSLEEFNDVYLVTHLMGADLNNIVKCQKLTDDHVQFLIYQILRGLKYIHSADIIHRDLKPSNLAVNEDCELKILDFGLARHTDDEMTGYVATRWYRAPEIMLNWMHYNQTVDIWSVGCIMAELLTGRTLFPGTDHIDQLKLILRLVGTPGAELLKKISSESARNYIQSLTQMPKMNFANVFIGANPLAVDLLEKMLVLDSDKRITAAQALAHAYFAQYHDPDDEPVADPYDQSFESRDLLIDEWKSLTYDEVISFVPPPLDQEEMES
Sequence (P40337 whole entry): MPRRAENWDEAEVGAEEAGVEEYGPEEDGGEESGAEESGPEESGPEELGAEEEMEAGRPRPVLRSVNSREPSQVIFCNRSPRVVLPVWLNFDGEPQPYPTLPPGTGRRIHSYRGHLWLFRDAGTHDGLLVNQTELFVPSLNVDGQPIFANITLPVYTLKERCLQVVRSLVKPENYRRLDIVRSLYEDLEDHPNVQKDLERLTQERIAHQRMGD
measurement.notes: Protac activity at E3 ubiquitin ligase/p38alpha in human MDA-MB-231 cells assessed as p38alpha degradation after 4 hrs by ELISA
Assay type: cell-based
pIC50: −log10 of the molar value.
readout.label: pIC50

Data request: Recorded pIC50 for COc1cc2c(Oc3ccc(NC(=O)C4(C(=O)Nc5ccc(F)cc5)CC4)cc3F)ccnc2cc1OCCOCCOCCC(=O)N[C@H](C(=O)N1C[C@H](O)C[C@H]1C(=O)NCc1ccc(-c2scnc2C)cc1)C(C)(C)C , please?
Data returned: 7.40

A: COc1cc2c(Oc3ccc(NC(=O)C4(C(=O)Nc5ccc(F)cc5)CC4)cc3F)ccnc2cc1OCCCOCCCOCCC(=O)N[C@H](C(=O)N1C[C@H](O)C[C@H]1C(=O)NCc1ccc(-c2scnc2C)cc1)C(C)(C)C
B: COc1cc2c(Oc3ccc(NC(=O)C4(C(=O)Nc5ccc(F)cc5)CC4)cc3F)ccnc2cc1OCCCOCCOCCC(=O)N[C@H](C(=O)N1C[C@H](O)C[C@H]1C(=O)NCc1ccc(-c2scnc2C)cc1)C(C)(C)C
Data request: Consider A and B . Which of these has its pIC50 at a higher number? Write the label of whichever entry you select.
Data returned: B
